These measurements were taken from patent CN110840830A.

EC50 reference
- Measurement Target: T1, CTLA-4 (antigen coated on ELISA plates and immunotubes) (UniProt P16410 36-161, limits assumed)
- T1 construct: also called CTLA-4抗原; 细胞毒性T淋巴细胞相关抗原4
- T1 sequence (looked up): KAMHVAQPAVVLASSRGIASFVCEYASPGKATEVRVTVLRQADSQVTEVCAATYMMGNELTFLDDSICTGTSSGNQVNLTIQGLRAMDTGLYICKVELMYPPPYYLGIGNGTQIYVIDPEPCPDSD
- Assay Notes: ELISA, full antibody on coated CTLA-4, anti-human IgG-HRP
Report the value in mg/L with no unit label.

Binder	EC50 (mg/L)
全抗N-6 (antibody, human IgG1, kappa, V domains shown, also called 抗CTLA-4全抗体N-6) VH: QVQLVESGGGVVQPGRSLRLSCAASGFTFSSNTLRWVRQAPGKGLEWVTFISYDSLFLDQGDSVKGRFTISRDNSKNTLYLQMNSLRAEDTAIYYCARRYRWWGKAMDYWGQGTLVTVSS VL: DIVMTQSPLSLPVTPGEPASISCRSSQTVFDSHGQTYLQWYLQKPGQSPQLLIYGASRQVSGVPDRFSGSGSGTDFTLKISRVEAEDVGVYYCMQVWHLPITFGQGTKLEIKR	0.127

EC50 reading for 全抗N-4 (antibody, human IgG1, kappa, V domains shown, also called 抗CTLA-4全抗体N-4) VH: QVQLVESGGGVVQPGRSLRLSCAASGFTFSAFYNPWVRQAPGKGLEWVTFISYDGVYFHFGDSVKGRFTISRDNSKNTLYLQMNSLRAEDTAIYYCARRYRWWGKAMDYWGQGTLVTVSS VL: DIVMTQSPLSLPVTPGEPASISCKSSQSVIDSKGYTYLGWYLQKPGQSPQLLIYLGTQKSSGVPDRFSGSGSGTDFTLKISRVEAEDVGVYYCLQRGHIPITFGQGTKLEIKR : 0.0922

EC50 reading for 全抗N-3 (antibody, human IgG1, kappa, V domains shown, also called 抗CTLA-4全抗体N-3) VH: QVQLVESGGGVVQPGRSLRLSCAASGFTFSGIFSSWVRQAPGKGLEWVTFISYDSLKQKDGDSVKGRFTISRDNSKNTLYLQMNSLRAEDTAIYYCARRYRWWGKAMDYWGQGTLVTVSS VL: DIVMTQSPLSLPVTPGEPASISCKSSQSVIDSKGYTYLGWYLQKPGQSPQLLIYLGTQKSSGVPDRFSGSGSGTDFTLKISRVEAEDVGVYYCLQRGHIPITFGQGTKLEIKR : 0.264

EC50 reading for 全抗N-2 (antibody, human IgG1, kappa, V domains shown, also called 抗CTLA-4全抗体N-2) VH: QVQLVESGGGVVQPGRSLRLSCAASGFTFSSIFKRWVRQAPGKGLEWVTFISYDGLDHINGDSVKGRFTISRDNSKNTLYLQMNSLRAEDTAIYYCARRYRWWGKAMDYWGQGTLVTVSS VL: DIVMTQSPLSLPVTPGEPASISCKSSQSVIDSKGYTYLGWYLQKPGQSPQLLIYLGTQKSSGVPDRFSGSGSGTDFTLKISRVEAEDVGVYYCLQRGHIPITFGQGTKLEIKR : 0.11

EC50 reading for 全抗N-8 (antibody, human IgG1, kappa, V domains shown, also called 抗CTLA-4全抗体N-8) VH: QVQLVESGGGVVQPGRSLRLSCAASGFTFSGFSICWVRQAPGKGLEWVTFISYDGLLFLIADSVKGRFTISRDNSKNTLYLQMNSLRAEDTAIYYCARRYRWWGKAMDYWGQGTLVTVSS VL: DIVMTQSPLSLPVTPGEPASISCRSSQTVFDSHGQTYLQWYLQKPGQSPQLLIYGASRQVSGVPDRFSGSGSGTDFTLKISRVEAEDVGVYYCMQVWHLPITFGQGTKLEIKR : 0.164
